Ref: patent US20240101668A1

Experimental target: T1, huCD33-R69 stably expressed on Jurkat cells (human, UniProt P20138 18-364)
T1 construct: whole, on cells; >200,000 receptors per cell; also called CD33 WT; CD33^ARG69
T1 sequence (P20138 18-364): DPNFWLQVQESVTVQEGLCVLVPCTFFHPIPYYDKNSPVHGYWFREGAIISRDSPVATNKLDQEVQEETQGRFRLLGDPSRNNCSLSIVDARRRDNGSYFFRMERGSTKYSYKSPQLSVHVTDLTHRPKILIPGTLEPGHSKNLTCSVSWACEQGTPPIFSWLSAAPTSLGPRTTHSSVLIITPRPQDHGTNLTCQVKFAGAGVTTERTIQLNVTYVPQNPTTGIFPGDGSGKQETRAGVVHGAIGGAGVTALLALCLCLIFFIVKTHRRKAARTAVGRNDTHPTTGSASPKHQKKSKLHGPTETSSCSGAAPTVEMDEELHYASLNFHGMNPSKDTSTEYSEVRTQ
Assay: FACS on cells;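 note: fixed Jurkat lines probed with myc-tagged scFv periplasmic extracts, anti-myc PE flow cytometry, PE MFI fold binned − <2, + 2–10, ++ 10–30, +++ >30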
Consider the following binders and their measured FACS geometric mean fold change over Jurkat parental readings.

Sample records with FACS geometric mean fold change over Jurkat parental:
In: Consider the binder shown here: Polypeptide No. 125 (scFv, V domains shown, scFv) VH: QVQLVQSGAEVKKPGASVKVSCKASGYSFTTYDIHWVRQAPGQGLEWMGWMNPNSGNTGYAQKFQGRVTMTRDTSTSTVYMELSSLRSEDTAVYYCATDHWVLGGFDYWGQGTLVTVSS VL: DIQMTQSPSSLSASVGDRVTITCQASQDISNYLNWYQQKPGKAPKLLIYAASTLQSGVPSRFSGSGSGTDFTLTISSLQPEDFATYYCQQYSYLPVTFGQGTKLEIKR What is its recorded FACS geometric mean fold change over Jurkat parental?
Out: > 30 fold

In: Another: Polypeptide No. 123 (scFv, V domains shown, scFv) VH: EVQLLESGGGLVQPGGSLRLSCAASGFILGNAWMHWVRQAPGKGLEWVASVSGDGSDENYADSVKGRFTISRDNSKNTLYLQMNSLRAEDTAVYYCARDTHDYGDYAPFDYWGQGTLVTVSS VL: DIQMTQSPSSLSASVGDRVTITCQASQDINNYLNWYQQKPGKAPKLLIYAASNLQSGVPSRFSGSGSGTDFTLTISSLQPEDFATYYCQQTYSFPLTFGGGTKVEIKR
Out: > 30 fold

In: Another: Polypeptide No. 93 (scFv, V domains shown, scFv) VH: QVQLVQSGAEVKKPGASVKVSCKASGYSFTNYDISWVRQAPGQGLEWMGWVNPNSGNTGYAQKFQGRVTMTRDTSTSTVYMELSSLRSEDTAVYYCAKDAPYYYDSSGYYGVFDYWGQGTLVTVSS VL: DIVMTQSPLSLPVTPGEPASISCRSSQSLLHSNGYNYLDWYLQKPGQSPQLLIYAASSLQSGVPDRFSGSGSGTDFTLKISRVEAEDVGVYYCMQALQTPLTFGQGTRLEIKR
Out: 2 to 10 fold

In: Another: Polypeptide No. 97 (scFv, V domains shown, scFv) VH: EVQLLESGGGLVQPGGSLRLSCAASGFTFRSYWMTWVRQAPGKGLEWVSVISGSGDNTYYADSVKGRFTISRDNSKNTLYLQMNSLRAEDTAVYYCARETTWGMDVWGQGTTVTVSS VL: DIQMTQSPSSLSASVGDRVTITCRASQSISSYLNWYQQKPGKAPKLLIYDASNLETGVPSRFSGSGSGTDFTLTISSLQPEDFATYYCQQSSIIPLTFGGGTKVEIKR
Out: 10 to 30 fold

Next:
In: Consider the binder shown here: Polypeptide No. 143 (scFv, V domains shown, scFv) VH: QVQLVQSGAEVKKPGASVKVSCKASGYTFTGYYMHWVRQAPGQGLEWMGWMNANSGNTGFAQKFQGRVTMTRDTSTSTVYMELSSLRSEDTAVYYCARDSSSWLSGGGWFDPWGQGTLVTVSS VL: DIQMTQSPSSLSASVGDRVTITCRASQSIGTYLSWYQQKPGKAPKLLIYAASSLQSGVPSRFSGSGSGTDFTLTISSLQPEDFATYYCQQSYSSPITFGQGTKLEIKR What is its recorded FACS geometric mean fold change over Jurkat parental?
Out: 2 to 10 fold

In: Another: Polypeptide No. 112 (scFv, V domains shown, scFv) VH: QVQLVQSGAEVKKPGSSVKVSCKASGSTLTGYDIHWVRQAPGQGLEWMGGIIPFLGTASYAQEFQGRVTITADESTSTAYMELSSLRSEDTAVYYCARGGGSGYDLDYWGQGTLVTVSS VL: DIQMTQSPSSLSASVGDRVTITCRSSESISSWLAWYQQKPGKAPKLLIYSASTLQSGVPSRFSGSGSGTDFTLTISSLQPEDFATYYCQQSYSTPVTFGQGTRLEIKR
Out: 2 to 10 fold

In: Another: Polypeptide No. 90 (scFv, V domains shown, scFv) VH: EVQLLESGGGLVQPGGSLRLSCAASGFTFSNSDMNWVRQAPGKGLEWVSYISGTGSTIYYADSVKGRFTISRDNSKNTLYLQMNSLRAEDTAVYYCAKDYDSSYGSGYYGMDVWGQGTTVTVSS VL: DIQMTQSPSSLSASVGDRVTITCRASQSIYNYLNWYQQKPGKAPKLLIYAASNLQSGVPSRFSGSGSGTDFTLTISSLQPEDFATYYCQQYGNAPLTFGQGTKVEIKR
Out: > 30 fold

In: Another: Polypeptide No. 134 (scFv, V domains shown, scFv) VH: QVQLVQSGAEVKKPGASVKVSCKASGYTFDSYLLHWVRQAPGQGLEWMGMINPSGAGTTYAQKFQGRVTMTRDTSTSTVYMELSSLRSEDTAVYYCAKEGSIAAGYYFDSWGQGTLVTVSS VL: DIQMTQSPSSLSASVGDRVTITCRASQSIDSWLAWYQQKPGKAPKLLIYAASSLQSGVPSRFSGSGSGTDFTLTISSLQPEDFATYYCQQSYTTPITFGGGTKVEIKR
Out: > 30 fold

In: Another: Polypeptide No. 113 (scFv, V domains shown, scFv) VH: QVQLVQSGAEVKKPGSSVKVSCKASGGTFSSYDINWVRQAPGQGLEWMGGLIPVFGTTHYAQNFQGRVTITADESTSTAYMELSSLRSEDTAVYYCATGLGVTTSNYYYGMDVWGQGTLVTVSS VL: DIQMTQSPSSLSASVGDRVTITCRASQGIRNDIGWYQQKPGKAPKLLIYAASTLQSGVPSRFSGSGSGTDFTLTISSLQPEDFATYYCQQTYMMPYTFGQGTKLEIKR
Out: > 30 fold

In: Another: Polypeptide No. 132 (scFv, V domains shown, scFv) VH: EVQLLESGGGLVQPGGSLRLSCAASGFTFNNYGMHWVRQAPGKGLEWVSAISGSGGSTYYADSVKGRFTISRDNSKNTLYLQMNSLRAEDTAVYYCAREYMQQPHGGMDVWGQGTTVTVSS VL: EIVMTQSPATLSVSPGERATLSCRASQSVNSYLAWYQQKPGQAPRLLIYGASTRATGIPARFSGSGSGTEFTLTISSLQSEDFAVYYCQQYGSSPLSFGGGTKVEIKR
Out: 2 to 10 fold
